# Assay target: NK2 (Homo sapiens)
# Sequence (P21452 1-398): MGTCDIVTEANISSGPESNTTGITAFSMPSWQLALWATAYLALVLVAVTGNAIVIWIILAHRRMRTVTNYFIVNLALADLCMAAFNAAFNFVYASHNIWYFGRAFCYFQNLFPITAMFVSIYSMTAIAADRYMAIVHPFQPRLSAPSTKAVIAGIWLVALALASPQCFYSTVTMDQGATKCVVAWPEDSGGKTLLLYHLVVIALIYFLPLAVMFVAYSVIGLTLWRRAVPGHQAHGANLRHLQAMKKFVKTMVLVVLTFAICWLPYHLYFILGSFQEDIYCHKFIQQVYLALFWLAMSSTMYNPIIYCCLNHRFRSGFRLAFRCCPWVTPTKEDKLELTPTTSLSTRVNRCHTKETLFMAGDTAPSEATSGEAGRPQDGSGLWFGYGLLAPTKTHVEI
# Method description: Signal transduction (ST), intracellular Ca++ FLIPR, NK2
# Type: cell-based
# Test context: antagonist, read-out: NK2 pIC50 (converted)
// returns N unless IC50 is strictly below 6 µM, in which case Y

Answered cases to consult:
In: Is IC50 strictly under 6 µM for the entry O=C1OC2(CCN1Cc1cccnc1)CCN(C1CCN(C(=O)c3cc(C(F)(F)F)cc(C(F)(F)F)c3)C(Cc3ccccc3)C1)CC2 (single isomer, unassigned) [Compound 2.17] ?
Out: Y

In: Dear colleague, could you confirm whether IC50 of O=C1OC2(CCN1Cc1cccnc1)CCN(C1CCN(C(=O)c3cc(C(F)(F)F)cc(C(F)(F)F)c3)C(Cc3ccccc3)C1)CC2 (single isomer, unassigned) [Compound 2.16] falls below 6 µM? Thanks.
Out: N

In: Is the reported IC50 for CC(C)(C)CN1CCC2(CCN(C3CCN(C(=O)c4cc(C(F)(F)F)cc(C(F)(F)F)c4)C(Cc4ccccc4)C3)CC2)OC1=O (single isomer, unassigned) [Compound 2.2] strictly below 6 µM?
Out: Y

New cases:
In: Input O=C1OC2(CCN1Cc1ccsc1)CCN(C1CCN(C(=O)c3cc(C(F)(F)F)cc(C(F)(F)F)c3)C(Cc3ccccc3)C1)CC2 (stereo not drawn) [Compound 2.6] ; condition: IC50 strictly below 6 µM. Does it hold?
Out: N

In: Does Cc1ccccc1CN1CCC2(CCN(C3CCN(C(=O)c4cc(C(F)(F)F)cc(C(F)(F)F)c4)C(Cc4ccccc4)C3)CC2)OC1=O (stereo not drawn) [Compound 2.12] have IC50 strictly under 6 µM?
Out: Y
